From: paper PMC7873978

Target: Mhp-LplJ (lipoate-protein ligase, MHP_RS00640) (Mesomycoplasma hyopneumoniae, UniProt E4QSS7)
Construct: gene lplA; hexa-histidine-tagged Mhp-LplJ (pET22b)
Sequence (E4QSS7 1-336): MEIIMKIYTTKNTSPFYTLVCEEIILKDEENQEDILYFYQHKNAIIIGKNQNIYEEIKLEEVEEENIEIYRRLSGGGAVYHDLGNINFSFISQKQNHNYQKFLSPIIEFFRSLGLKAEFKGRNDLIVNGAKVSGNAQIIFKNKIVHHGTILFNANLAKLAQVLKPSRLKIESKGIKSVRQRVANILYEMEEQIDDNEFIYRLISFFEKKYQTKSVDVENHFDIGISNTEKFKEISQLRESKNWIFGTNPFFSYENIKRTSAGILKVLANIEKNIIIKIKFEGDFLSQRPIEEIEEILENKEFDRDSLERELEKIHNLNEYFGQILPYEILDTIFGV
Experiment: SPR (Biacore 8K, CM5, immobilized Mhp-LplJ), single-site kinetics fit
Format: binding
READOUT_LABEL: Kd (µM)

smiles_record=O=C(O)CCCC[C@@H]1CCSS1 data_value=24.1
